TESTED_TARGET: LRRK2 (Homo sapiens (Human), UniProt Q5S007)
Sequence (Q5S007 whole entry G2019S): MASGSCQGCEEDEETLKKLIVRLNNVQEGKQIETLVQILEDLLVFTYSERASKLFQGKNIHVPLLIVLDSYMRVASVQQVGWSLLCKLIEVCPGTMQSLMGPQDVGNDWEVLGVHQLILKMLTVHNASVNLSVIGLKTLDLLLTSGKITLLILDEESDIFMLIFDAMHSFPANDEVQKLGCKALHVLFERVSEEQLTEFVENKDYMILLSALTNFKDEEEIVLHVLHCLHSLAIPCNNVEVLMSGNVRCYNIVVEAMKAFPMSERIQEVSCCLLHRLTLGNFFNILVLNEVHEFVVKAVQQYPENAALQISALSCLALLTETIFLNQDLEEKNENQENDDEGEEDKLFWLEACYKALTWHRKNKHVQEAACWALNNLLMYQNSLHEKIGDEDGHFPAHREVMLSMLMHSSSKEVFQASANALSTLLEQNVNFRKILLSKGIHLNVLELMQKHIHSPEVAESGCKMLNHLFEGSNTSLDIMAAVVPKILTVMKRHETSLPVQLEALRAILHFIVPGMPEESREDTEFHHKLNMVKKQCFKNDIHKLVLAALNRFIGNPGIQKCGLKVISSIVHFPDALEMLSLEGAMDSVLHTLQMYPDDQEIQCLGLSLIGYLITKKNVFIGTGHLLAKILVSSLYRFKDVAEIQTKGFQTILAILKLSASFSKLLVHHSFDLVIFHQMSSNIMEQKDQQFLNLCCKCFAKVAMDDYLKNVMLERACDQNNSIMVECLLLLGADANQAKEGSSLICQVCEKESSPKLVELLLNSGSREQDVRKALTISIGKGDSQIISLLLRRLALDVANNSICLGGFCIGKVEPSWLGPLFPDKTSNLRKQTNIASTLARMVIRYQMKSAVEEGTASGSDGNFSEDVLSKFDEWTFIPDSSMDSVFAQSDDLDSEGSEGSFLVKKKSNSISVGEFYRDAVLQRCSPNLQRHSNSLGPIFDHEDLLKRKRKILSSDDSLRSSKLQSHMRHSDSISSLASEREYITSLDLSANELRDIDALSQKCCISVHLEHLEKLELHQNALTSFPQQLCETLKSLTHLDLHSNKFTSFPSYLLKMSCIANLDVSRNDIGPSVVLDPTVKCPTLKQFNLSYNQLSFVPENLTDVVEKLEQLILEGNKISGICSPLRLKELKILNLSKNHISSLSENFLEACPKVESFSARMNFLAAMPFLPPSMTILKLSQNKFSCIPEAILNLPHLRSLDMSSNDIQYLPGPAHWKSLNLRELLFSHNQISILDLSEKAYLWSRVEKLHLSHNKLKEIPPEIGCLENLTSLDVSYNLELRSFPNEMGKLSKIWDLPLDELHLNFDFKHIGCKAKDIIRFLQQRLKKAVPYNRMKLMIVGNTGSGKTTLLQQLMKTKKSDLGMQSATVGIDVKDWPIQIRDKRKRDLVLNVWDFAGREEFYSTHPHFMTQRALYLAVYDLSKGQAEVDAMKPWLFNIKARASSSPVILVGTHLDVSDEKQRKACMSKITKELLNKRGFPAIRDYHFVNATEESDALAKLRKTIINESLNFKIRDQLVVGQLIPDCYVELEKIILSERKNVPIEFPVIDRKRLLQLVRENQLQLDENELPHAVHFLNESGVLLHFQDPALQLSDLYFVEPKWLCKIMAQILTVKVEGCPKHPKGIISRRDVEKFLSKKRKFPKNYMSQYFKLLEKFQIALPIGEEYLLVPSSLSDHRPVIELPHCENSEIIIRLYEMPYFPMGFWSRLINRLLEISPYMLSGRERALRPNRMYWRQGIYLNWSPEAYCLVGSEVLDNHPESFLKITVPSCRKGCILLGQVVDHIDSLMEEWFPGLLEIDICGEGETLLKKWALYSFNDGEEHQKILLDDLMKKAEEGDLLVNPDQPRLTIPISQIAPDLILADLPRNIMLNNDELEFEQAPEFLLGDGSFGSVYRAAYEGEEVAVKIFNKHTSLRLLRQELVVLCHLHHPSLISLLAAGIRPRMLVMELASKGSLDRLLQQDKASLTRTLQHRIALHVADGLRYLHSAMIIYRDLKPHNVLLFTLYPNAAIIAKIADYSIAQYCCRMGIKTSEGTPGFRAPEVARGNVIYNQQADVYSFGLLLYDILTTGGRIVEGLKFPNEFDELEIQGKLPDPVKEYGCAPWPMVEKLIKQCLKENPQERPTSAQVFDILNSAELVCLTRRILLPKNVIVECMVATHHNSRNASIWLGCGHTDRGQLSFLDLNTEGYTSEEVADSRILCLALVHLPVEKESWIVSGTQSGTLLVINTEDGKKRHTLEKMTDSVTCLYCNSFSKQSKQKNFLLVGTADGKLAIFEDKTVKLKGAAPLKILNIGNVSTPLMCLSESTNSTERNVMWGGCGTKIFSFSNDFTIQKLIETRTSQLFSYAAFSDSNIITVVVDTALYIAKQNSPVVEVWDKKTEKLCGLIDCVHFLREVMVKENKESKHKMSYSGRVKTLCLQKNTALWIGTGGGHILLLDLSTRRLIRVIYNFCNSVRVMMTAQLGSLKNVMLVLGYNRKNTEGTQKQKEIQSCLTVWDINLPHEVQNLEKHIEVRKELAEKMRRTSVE
TEST_METHOD_NOTES: In Vitro LRRK2 Assay (LabChip 3000, fluorescently-labeled peptide substrate)
Type: biochemical
TEST_CONTEXT: ATP 130 μM, substrate 1 μM, 2 hours, ambient temperature; LRRK2 variant not given; read-out: Ki (μM), affinity values for LRRK2
hey, just use TRUE if measured Ki is less than 0.03 µM, otherwise FALSE

Worked cases, answers included:
>  <SMILES_TEXT>
N#CCc1cccc(-c2[nH]nc3ccnc(OC4CCOCC4)c23)c1

>  <QUALITATIVE_LABEL>
TRUE

$$$$
>  <SMILES_TEXT>
CC(C)n1cc(-c2n[nH]c3ccnc(OC4CCOCC4)c23)cc1C(=O)NC1COC1

>  <QUALITATIVE_LABEL>
TRUE

$$$$
>  <SMILES_TEXT>
Clc1ccccc1C#Cc1[nH]nc2ccnc(OC3CCOCC3)c12

>  <QUALITATIVE_LABEL>
TRUE

$$$$
>  <SMILES_TEXT>
Cn1cc(-c2cc(-c3n[nH]c4ccnc(OC5CCOCC5)c34)ccn2)cn1

>  <QUALITATIVE_LABEL>
TRUE

$$$$
>  <SMILES_TEXT>
c1cc2[nH]nc(-c3cnn([C@@H]4CCOC4)c3)c2c(OC2CCOCC2)n1

>  <QUALITATIVE_LABEL>
TRUE

$$$$
>  <SMILES_TEXT>
CC(=O)Nc1ccc(-c2cc(-c3n[nH]c4ccnc(OC5CCOCC5)c34)ccn2)cn1

>  <QUALITATIVE_LABEL>
TRUE

$$$$
>  <SMILES_TEXT>
CC(=O)Nc1cccc(-c2cc(-c3n[nH]c4ccnc(OC5CCOCC5)c34)ccn2)c1

>  <QUALITATIVE_LABEL>
TRUE

$$$$
>  <SMILES_TEXT>
CNC(=O)c1cccc(-c2cc(-c3n[nH]c4ccnc(OC5CCOCC5)c34)ccn2)c1

>  <QUALITATIVE_LABEL>
TRUE

$$$$
>  <SMILES_TEXT>
COc1nccc2n[nH]c(-c3ccc(S(C)(=O)=O)cc3)c12

>  <QUALITATIVE_LABEL>
FALSE

$$$$
>  <SMILES_TEXT>
CC(C)n1cc(-c2n[nH]c3ccnc(OCCN4CCOC4=O)c23)cn1

>  <QUALITATIVE_LABEL>
FALSE

$$$$

q: Here's an entry: `COc1nccc2[nH]nc(-c3ccnc(N4CCCC4)c3)c12` . Is its Ki below 0.03 µM?
a: TRUE

q: Here's an entry: `Fc1c(-c2n[nH]c3ccnc(OC4CCOCC4)c23)ccnc1N1CCOCC1` . Is its Ki below 0.03 µM?
a: FALSE

q: Here's an entry: `c1coc(-c2n[nH]c3ccnc(OC4CCOCC4)c23)c1` . Is its Ki below 0.03 µM?
a: FALSE

q: Here's an entry: `Cc1n[nH]c2ccnc(OC3CCCC3)c12` . Is its Ki below 0.03 µM?
a: FALSE
